Where do these numbers come from? They come from paper PMC5540273.

System: CDK11
Construct: gene CDK19
measurement.conditions: concentration: 1 μM, replicates: in singlicate; n = 1;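 note: KINOMEscan kinase panel screen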
Give %Inh for every item shown.
// note: answer is a bare numeric in %

Consider the molecule shown here: NS(=O)(=O)c1cccc(-c2ccc3nccc(-c4cccc(S(N)(=O)=O)c4)c3c2)c1 What is its recorded %Inh? 13

Try the molecule COc1cc2c(cc1OCCN1CCN(C)CC1)ncc1c3ccc(C#N)cc3[nH]c21 0

And what about the molecule Cc1cn2c(=O)cc(N3CCOCC3)nc2n1Cc1cccc(Cl)c1Cl ? 11

----------
Tested on: IKK-epsilon
Construct: gene IKBKE
measurement.conditions: concentration: 1 μM, replicates: in singlicate; n = 1
Assignment: determine reported %Inh for the given compounds.
Express the result in % but write the number alone.

# input compound: O=C(NOCC1CC1)c1ccc(F)c(F)c1Nc1ccc(I)cc1Cl ; wanted: its %Inh 0

Queued: CN1c2ccc(NCc3ccc(F)cc3)cc2-c2c(cnn2C)S1(=O)=O 0

Now this one: CN(C1=C(c2ccccc2)C(=O)NC1=O)c1ccccc1 [SB-334860] 27

Input CCc1nc(-c2cccc(C)c2)c(-c2ccnc(NCc3ccccc3)c2)s1 0

One more compound: CSc1ccc(-c2cc3ncnc(SCC(=O)O)c3s2)cc1 0

----------
Tested on: p38-beta
Construct: gene MAPK11
measurement.conditions: concentration: 1 μM, replicates: in singlicate; n = 1
parameter.measured: %Inh (%)
Please state the figure in %; there is no need to write the unit.

Find the recorded %Inh belonging to CN1c2ccc(CNc3ccc(F)cc3)cc2-c2c(cnn2C)S1(=O)=O and report it. 0

Now try O=C(Nc1n[nH]c2cc(-c3cccc(F)c3)ccc12)C1CC1 [SB-735464] . 7

Likewise for NS(=O)(=O)c1cccc(-c2ccc3ncc(N4CCOCC4)nc3c2)c1 [GSK1535721] ? 0

Repeat with CNc1ncnc2[nH]ncc12 [SKF-18355] 8

Next: O=c1cc(N2CCOCC2)nc2n(Cc3cccc(Cl)c3Cl)c(C3CC3)nn12 [GSK2358994] 8

// query: Cc1cccc(Cn2ccn3c(=O)cc(N4CCOCC4)nc23)c1 [GSK2297542] 0

And what about the compound Cc1ccc(C(=O)NCC(N)=O)cc1-n1c(C)cc(OCc2ccc(F)cc2F)c(Br)c1=O ? 100

Param item: c1ccc(-c2cc(-c3c[nH]nc3-c3ccccn3)ccn2)cc1 [GW576604] 0

What do you get for Cc1cn2c(=O)cc(N3CCOCC3)nc2n1Cc1cccc(Cl)c1Cl [GSK2334006] ? 16

Request: c1ccc(-c2n[nH]cc2-c2ccnc3ccccc23)nc1 [GW271431] 0

Another: O=c1cc(N2CCOCC2)nc2n(Cc3cccc(F)c3)ccn12 [GSK2297430] 0

O=C1Cc2cc(Nc3nc(NCc4cccc(S(=O)(=O)C(F)(F)F)c4)ncc3C(F)(F)F)ccc2N1 , same question. 0

What do you have for CC(C)(C)n1cnc2c(N)ncnc21 [SKF-97359] ? 0

Now this one: Fc1ccc(-c2ncn(CCCN3CCOCC3)c2-c2ccccn2)cc1 [SB-211742] 0

Now the compound [2H]C([2H])(c1cccc(C(F)(F)F)c1C)n1ccn2c(=O)nc(N3CCOCC3)cc12 [GSK2336394] 0

Now give it for COc1cc2c(cc1OCCN1CCN(C)CC1)ncc1c3ccc(C#N)cc3[nH]c21 too. 1

One more compound: O=C1NC(=O)C(N2CCc3ccccc32)=C1c1cccc(Cl)c1 [SB-408010] 7

Try this compound too: CC(C)Oc1ccc2c(-c3ccnc(Nc4ccc(N5CCN(C)CC5)cc4)n3)cnn2n1 [GW696155] 0

Continue with COc1ccc(Nc2ncc(C#N)c(Nc3ccccc3C(N)=O)n2)cc1N1CCN(C)CC1.Cl [GSK1558669] 0
